Recorded values, source patent US11207312B2.

- System: P. aeruginosa MB9798 (efflux+, IMP-1 plasmid)
- experimental_context: fold difference between efflux+ (MB9798) and efflux− (MB9799) strains
- Description: The strain background is Pseudomonas aeruginosa PAO1. A wild-type (M135919) and an isogenic strain in which multiple efflux pumps have been disrupted genetically were used. The MBL IMP-1, obtained from a clinical isolate was introduced into the strain pair by the following process: The plasmid DNA was transformed into parental MB5919 (oprD+, efflux+, inducible AmpC) and MB5890 (oprD+, efflux−, inducible AmpC) isogenic strains by electroporation. […]
reported_endpoint: Efflux ratio
Would you mind answering with just the numeric figure?

Completed entries (count: 2):
compound: NCCC1CCN(c2ccc(S(=O)(=O)NC[C@H](O)CN)c(S(N)(=O)=O)c2-c2nn[nH]n2)CC1
reported_endpoint: Efflux ratio
readout_number: 1.00
--
compound: NC/C=C1\CCCN(c2ccc(S(=O)(=O)NC[C@H](O)CN)c(S(N)(=O)=O)c2-c2nn[nH]n2)C1 (single isomer, unassigned; isomer b)
reported_endpoint: Efflux ratio
readout_number: 4.00

What Efflux ratio value was documented for this compound, COC(=O)C1CCN(c2ccc(S(=O)(=O)N[C@@H]3CCNC3)c(S(N)(=O)=O)c2-c2nn[nH]n2)CCN1.Cl (stereo partly drawn) ? 2.00

====

- tested_on: VIM-1 (Pseudomonas aeruginosa (strain ATCC 15692 / DSM 22644 / CIP 104116 / JCM 14847 / LMG 12228 / 1C / PRS 101 / PAO1), UniProt A0A0F7KYQ8)
- protocol_notes: biochemical
- experimental_context: CCF2-FA fluorescence assay, 2 hours at 25° C.; read-out: VIM1 IC50
Below, each entry is listed with its recorded log10(IC50).
All values: log10 IC50 [nM].

compound: NCCNS(=O)(=O)c1ccc(N2CCC(CO)CC2)c(-c2nnn[nH]2)c1S(N)(=O)=O
log10(IC50): -0.72
//
compound: CN1CCOC2(C1)CN(c1ccc(S(=O)(=O)N[C@@H]3CCNC3)c(S(N)(=O)=O)c1-c1nnn[nH]1)C2
log10(IC50): 0.32
//
compound: NC[C@@H](O)CNS(=O)(=O)c1ccc(N2CC[C@@H](N)C2)c(-c2nn[nH]n2)c1S(N)(=O)=O
log10(IC50): 1.04
//
compound: NCCN1CCN(c2ccc(S(=O)(=O)NC[C@H](O)CN)c(S(N)(=O)=O)c2-c2nnn[nH]2)CC1
log10(IC50): -0.54
//
compound: NC[C@@H](O)CNS(=O)(=O)c1ccc(N2CCC(c3ncc[nH]3)CC2)c(-c2nn[nH]n2)c1S(N)(=O)=O
log10(IC50): -0.59
//
compound: NC[C@@H](O)CNS(=O)(=O)c1ccc(N2CCC(C(N)CO)CC2)c(-c2nn[nH]n2)c1S(N)(=O)=O (single isomer, unassigned) [Example 181]
log10(IC50): -0.66
//
compound: C[C@H](CN)NS(=O)(=O)c1ccc(N2CC[C@@H](N)[C@@H](F)C2)c(-c2nn[nH]n2)c1S(N)(=O)=O (racemic)
log10(IC50): -0.89
//
compound: NCC1CCN(c2ccc(S(=O)(=O)N[C@@H]3CCNC3)c(S(N)(=O)=O)c2-c2nn[nH]n2)CCN1 (some centres unmarked)
log10(IC50): -0.13
//
compound: NC[C@@H](O)CNS(=O)(=O)c1ccc(N2CCC3(CCNC3)C2)c(-c2nn[nH]n2)c1S(N)(=O)=O (some centres unmarked)
log10(IC50): 0.32
//
compound: CN(C)[C@@H]1CCN(c2ccc(S(=O)(=O)N[C@@H]3CCNC3)c(S(N)(=O)=O)c2-c2nnn[nH]2)C1
log10(IC50): 0.32

What log10(IC50) value was documented for this compound, N[C@@H]1CCCN(c2ccc(S(=O)(=O)N[C@@H]3CCNC3)c(S(N)(=O)=O)c2-c2nnn[nH]2)C1 ? 0.58

What log10(IC50) value was documented for this compound, NS(=O)(=O)c1c(S(=O)(=O)N[C@@H]2CCNC2)ccc(N2CCC(CO)CC2)c1-c1nnn[nH]1 ? -1.05

What log10(IC50) value was documented for this compound, NOC1CCCN(c2ccc(S(=O)(=O)N[C@@H]3CCNC3)c(S(N)(=O)=O)c2-c2nn[nH]n2)C1=O (some centres unmarked) ? -0.42

What log10(IC50) value was documented for this compound, NS(=O)(=O)c1c(S(=O)(=O)N[C@@H]2CCNC2)ccc(N2CCOC(CCO)C2)c1-c1nnn[nH]1 (some centres unmarked) ? -0.02
